tested on: SR leukemia; assay: NCI-60 one-dose screen, 48 h (100 = growth as untreated, 0 = no growth, -100 = all killed); conditions: 10 µM
Compounds without any hit were thinned out: in the full panel of roughly 83,000, 20% have a hit.
value.kind: growth (%)
Could you give me the number in %? Just the number is fine.

[
  {
    "compound": "CC1[C@H]2[C@H](C[C@H]3[C@@H]4CC=C5c6sc(Nc7cccc(Cl)n7)nc6CC[C@]5(C)[C@H]4CC[C@@]32C)O[C@]12CC[C@@H](C)CO2 (some centres undefined)",
    "growth / %": 65.3
  },
  {
    "compound": "CC1(C)CC(=O)C2=C(C1)N(Cc1ccc(C(=O)O)cc1)C1=C(C(=O)CC(C)(C)C1)C2c1ccc(Cl)cc1",
    "growth / %": 99.6
  },
  {
    "compound": "COc1ccc(C(=O)COc2ccc(NC(=O)Nc3ccccc3)cc2)cc1",
    "growth / %": 80.6
  },
  {
    "compound": "Cc1ccc(-c2nc(C#N)c(S(=O)(=O)N3CCN(S(C)(=O)=O)CC3)o2)cc1",
    "growth / %": 1.13
  }
]

Entry COc1ccc(C(=O)COc2ccc(NC(=O)Nc3ccc(Cl)c(C(F)(F)F)c3)cc2)cc1 : reported growth = ? 7.72

Param item: Fc1ccc(/C=C/c2nc3ccccc3n3c(-c4ccc(Cl)cc4)nnc23)cc1 -3.04

Param item: COc1ccccc1-n1cc(C#N)c(N)c1C(=O)c1ccc(Cl)cc1Cl 11.5

Param item: CC(C)(C)c1cc(/C=C2\S/C(=N/c3ncn[nH]3)NC2=O)cc(C(C)(C)C)c1O 6.04

Param item: O=C1S/C(=C\c2ccc([N+](=O)[O-])cc2)C(=O)N1CCN1CCCCC1 111

The measured values listed here are drawn from PubChem BioAssay (NCI).
